Collected literature values of IC50 measured for Fibroblast growth factor receptor 1 (Homo sapiens, UniProt P11362).

molecule	target_under_test	IC50
C=CC(=O)Nc1cc(OCCOC)ccc1Nc1ncc2cc(-c3c(Cl)c(OC)cc(OC)c3Cl)c3nccn3c2n1	Fibroblast growth factor receptor 1 (Homo sapiens, UniProt P11362)	< 50 nM

Tell me the measured IC50 of COc1cc(Nc2ncnc(N[C@H](CO)c3ccccc3)n2)cc(OC)c1OC , please.
6040 to 8810 nM

Also check C=CC(=O)Nc1cc(N2CCN(CC)CC2)cc(C)c1Nc1ncc(/C=C(\F)c2c(Cl)c(OC)cc(OC)c2Cl)cn1
813 nM

Also check COc1cc(OC)c(Cl)c(-c2ncc3c(-c4ccc5c(c4)CN(C4CC4)C5=O)n[nH]c3n2)c1Cl
< 100 nM

Also check COc1cccc(Nc2nc3ccccc3n2-c2ncnc(Nc3cc(OC)c(OC)c(OC)c3)n2)c1
< 801 nM

Also check COCCN1CCC(Nc2ccc3c(c2)/C(=C(\c2cccc(F)c2)c2ncn[nH]2)C(=O)N3)CC1
50 to 500 nM

Also check CCN(CC)CCOc1ccc(Nc2ncnc(Nc3cc(OC)c(OC)c(OC)c3)n2)cc1OC
> 9030 nM

---

Collected literature values of pIC50 measured for UniProtKB P11362.
pIC50: −log10 of the molar value.

Known pIC50 results, listed for orientation:
molecule	pIC50
COc1cc(Nc2ncnc(Nc3ccc4[nH]ncc4c3)n2)cc(OC)c1OC	5.05 to 5.21
COc1cc2nccc(Oc3ccc(NC(=S)N4CCN(C)CC4)c(Cl)c3)c2cc1C(N)=O	6.00 to 6.70
COc1cc(Nc2ncnc(Nc3cccc(Br)c3)n2)cc(OC)c1OC	4.98 to 5.09

# query: pIC50 | item COCCN1CCC(Oc2ccc3c(c2)/C(=C(\c2cccc(Cl)c2)c2nc4ccccc4[nH]2)C(=O)N3)CC1 | system: UniProtKB P11362
6.30 to 7.30

Also check COc1cc(OC)c(F)c(-c2ncc3c(-c4ccc(OCCN(C)C)cc4)n[nH]c3n2)c1F
> 7.00

Also check CCS(=O)(=O)Nc1cc(-c2ccc(F)cc2F)cc(-n2cnc3cc(-c4cnn(C)c4)ccc32)n1
8.36

Also check COc1cc(Nc2ncnc(-n3c(NC(C)c4ccc(F)cc4)nc4ccccc43)n2)cc(OC)c1OC (stereo not drawn)
> 6.11

Also check COc1cc(OC)c(F)c(N2Cc3cnc(N[C@H](C)c4ccccc4)cc3C3(CC3)C2=O)c1F
> 7.00

Also check CO[C@H]1COCC1Oc1cc(NC(=O)N2CCCc3cc(CN4CCOCC4=O)c(C=O)nc32)ncc1C#N (stereo partly drawn)
< 5.00

Also check COc1cc2nccc(Oc3ccc(NC(=S)NC4CC4)c(Cl)c3)c2cc1C(=O)N1CCCC1
6.00 to 6.70

Also check COc1cc(CCc2cnc3[nH]c(-c4ccc5c(c4)CC(=O)N5)cc3n2)cc(OC)c1
> 7.00

Also check COc1cc(Nc2ncnc(-n3c(NCc4cccc(C)c4)nc4ccccc43)n2)cc(OC)c1OC
> 6.09

---

Collected literature values of pIC50 measured for Fibroblast growth factor receptor 1 (Homo sapiens, UniProt P11362).
pIC50: −log10 of the molar value.

Known pIC50 results, listed for orientation:
compound	pIC50
N#Cc1cnc(NC(=O)N2CCCc3cc(CN4CCCCOC4=O)c(C=O)nc32)cc1S[C@H]1CCOC1	< 5.00
CCN1CCC(Nc2ccc3c(c2)/C(=C(\c2ccc(C(F)(F)F)cc2)c2ncc[nH]2)C(=O)N3)CC1	> 7.30

Tell me the measured pIC50 of CC(=O)Nc1cc(-c2ccc(F)cc2)cc(-n2cnc3cc(-c4cnn(CCC(C)(C)O)c4)ccc32)c1 , please.
8.47

Also check COc1cc(Nc2ncnc(NC3CC3c3ccccc3)n2)cc(OC)c1OC (centres unmarked)
5.05 to 5.21

Also check COc1cc(OC)c(F)c(C#Cc2cnc(NC(=O)N3CCCc4ccc(C=O)nc43)nc2)c1F
6.48

Also check CC(Oc1ccc2[nH]nc(-c3ccc(C(=O)N4CC[C@@H](N(C)C)C4)cc3)c2c1)c1c(Cl)cncc1Cl (some centres unmarked)
6.00 to 7.30

Also check COc1cc(Nc2ncnc(Nc3ccccc3F)n2)cc(OC)c1OC
< 4.92

Also check COc1cc(OC)c(Cl)c(-c2cc3[nH]nc(-c4cnn(C[C@H](C)O)c4)c3cn2)c1Cl
> 7.00

Also check COc1cc2nccc(Oc3cc4occ(C(=O)N5CCCC5)c4cc3Cl)c2cc1C(N)=O
6.00 to 6.70

Also check COc1cc(Nc2ncnc(-n3ccc4cc(Cl)ccc43)n2)cc(OC)c1OC
< 4.96

Also check CO[C@H]1CCN(Cc2cc3c(nc2C=O)N(C(=O)Nc2cc(NC4COC4)c(C#N)cn2)CCC3)C1=O
< 5.00
